Tested on: c-Src
Assay: phosphorylation enrichment, bacterial display (enrichment ratio); higher = better substrate or ligand; peptides without Tyr show the background;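 note: 11-residue human phosphosite peptides and single-mutation variants displayed on the E. coli surface, counted by deep sequencing, each peptide's frequency after selection divided by its frequency in the unselected input library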;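 note: frequency after pTyr selection over input frequency; kinase dosed for 20-30% of maximal phosphorylation in three min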

>  <record-sequence>
LFNQDYPIHCV [GATM_Y227_S231C_YF]

>  <phosphorylation enrichment>
0.33

$$$$
>  <record-sequence>
PADSGYPAYLG [ATP6V1A_Y374]

>  <phosphorylation enrichment>
0.592

$$$$
>  <record-sequence>
TIQSMYGCDVG [HLA-B_Y123_L119I]

>  <phosphorylation enrichment>
0.517

$$$$
>  <record-sequence>
TNLVPYPRIHF [TUBA1A_Y262]

>  <phosphorylation enrichment>
0.392

$$$$
>  <record-sequence>
HKANEYYPVVI [ADAMTS18_Y764_L769I]

>  <phosphorylation enrichment>
0.427

$$$$
>  <record-sequence>
RSSNTYTLTDV [ALCAM_Y298]

>  <phosphorylation enrichment>
1.58

$$$$
>  <record-sequence>
RQQEDYLLYKQ [RARRES1_Y159]

>  <phosphorylation enrichment>
0.941

$$$$
>  <record-sequence>
KPVDTYFDSTR [DYNC2H1_Y2230_M2227V_YF]

>  <phosphorylation enrichment>
0.43

$$$$
>  <record-sequence>
GLPINYTTRRI [LAMA2_Y2894]

>  <phosphorylation enrichment>
0.611

$$$$
>  <record-sequence>
GIVEEYQLPFF [BMPR1A_Y453_YF]

>  <phosphorylation enrichment>
0.746

$$$$
>  <record-sequence>
NAPNSYGRRLI [CDKN2A_Y44_P48L]

>  <phosphorylation enrichment>
0.449

$$$$
>  <record-sequence>
EQSNPYMVLDI [ROCK2_Y1197]

>  <phosphorylation enrichment>
3.73

$$$$
>  <record-sequence>
WIPIQYPIISE [NOG_Y222]

>  <phosphorylation enrichment>
0.354

$$$$
>  <record-sequence>
AVARPYHIQKW [ACSBG1_Y677_A673V]

>  <phosphorylation enrichment>
0.401

$$$$
>  <record-sequence>
RHYVYYYSYLL [PTEN_Y177_R173H]

>  <phosphorylation enrichment>
2.18

$$$$
>  <record-sequence>
PSSNLYYRWLT [CNGA3_Y168]

>  <phosphorylation enrichment>
4.28

$$$$
>  <record-sequence>
DVLVEYQGEGR [GNS_Y416]

>  <phosphorylation enrichment>
0.464

$$$$

* * *

sequences and their reported phosphorylation enrichment
Target: EPHB1 (UniProt P54762)
Sequence (P54762 whole entry, looked up): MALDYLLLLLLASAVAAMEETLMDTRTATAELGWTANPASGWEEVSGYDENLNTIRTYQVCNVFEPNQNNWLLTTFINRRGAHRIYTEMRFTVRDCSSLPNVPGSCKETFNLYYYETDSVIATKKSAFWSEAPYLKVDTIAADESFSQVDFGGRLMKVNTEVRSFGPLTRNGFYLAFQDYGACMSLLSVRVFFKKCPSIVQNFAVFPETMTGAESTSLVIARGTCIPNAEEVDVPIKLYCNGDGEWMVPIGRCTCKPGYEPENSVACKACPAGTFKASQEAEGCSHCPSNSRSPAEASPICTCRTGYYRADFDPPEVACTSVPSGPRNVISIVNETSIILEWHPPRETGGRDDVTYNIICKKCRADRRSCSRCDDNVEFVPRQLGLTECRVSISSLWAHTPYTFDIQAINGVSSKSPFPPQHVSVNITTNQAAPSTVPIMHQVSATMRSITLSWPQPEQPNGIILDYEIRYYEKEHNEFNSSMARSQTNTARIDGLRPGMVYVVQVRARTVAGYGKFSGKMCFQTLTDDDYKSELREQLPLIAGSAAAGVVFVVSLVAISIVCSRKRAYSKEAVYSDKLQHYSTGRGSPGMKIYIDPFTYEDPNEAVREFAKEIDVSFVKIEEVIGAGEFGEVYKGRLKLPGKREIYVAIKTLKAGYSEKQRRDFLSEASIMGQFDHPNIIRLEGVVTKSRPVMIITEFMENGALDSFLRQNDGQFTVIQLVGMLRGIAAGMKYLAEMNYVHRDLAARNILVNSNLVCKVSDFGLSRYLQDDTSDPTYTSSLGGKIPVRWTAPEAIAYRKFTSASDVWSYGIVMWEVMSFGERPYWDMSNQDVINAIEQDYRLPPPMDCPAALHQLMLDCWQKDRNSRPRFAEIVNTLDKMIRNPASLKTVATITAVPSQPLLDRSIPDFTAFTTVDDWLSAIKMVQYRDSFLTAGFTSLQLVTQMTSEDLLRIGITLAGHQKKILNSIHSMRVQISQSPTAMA
Test: phosphorylation enrichment, bacterial display (enrichment ratio); higher = better substrate or ligand; peptides without Tyr show the background
observation-type: phosphorylation enrichment

>  <record-sequence>
EYFDGYWGYSV [ITGA2B_Y265]

>  <observation-type>
phosphorylation enrichment

>  <reported-measurement>
3.88

$$$$
>  <record-sequence>
LTSVKYLLSAT [GSDMC_Y26_P23S]

>  <observation-type>
phosphorylation enrichment

>  <reported-measurement>
0.465

$$$$
>  <record-sequence>
RIFDYYSARKA [STOX1_Y858]

>  <observation-type>
phosphorylation enrichment

>  <reported-measurement>
0.499

$$$$
>  <record-sequence>
IMAFFYMCDSA [CASD1_Y382_R386S_YF]

>  <observation-type>
phosphorylation enrichment

>  <reported-measurement>
0.896

$$$$

* * *

Target: EPHB2 (UniProt P29323)
Sequence (P29323 whole entry, looked up): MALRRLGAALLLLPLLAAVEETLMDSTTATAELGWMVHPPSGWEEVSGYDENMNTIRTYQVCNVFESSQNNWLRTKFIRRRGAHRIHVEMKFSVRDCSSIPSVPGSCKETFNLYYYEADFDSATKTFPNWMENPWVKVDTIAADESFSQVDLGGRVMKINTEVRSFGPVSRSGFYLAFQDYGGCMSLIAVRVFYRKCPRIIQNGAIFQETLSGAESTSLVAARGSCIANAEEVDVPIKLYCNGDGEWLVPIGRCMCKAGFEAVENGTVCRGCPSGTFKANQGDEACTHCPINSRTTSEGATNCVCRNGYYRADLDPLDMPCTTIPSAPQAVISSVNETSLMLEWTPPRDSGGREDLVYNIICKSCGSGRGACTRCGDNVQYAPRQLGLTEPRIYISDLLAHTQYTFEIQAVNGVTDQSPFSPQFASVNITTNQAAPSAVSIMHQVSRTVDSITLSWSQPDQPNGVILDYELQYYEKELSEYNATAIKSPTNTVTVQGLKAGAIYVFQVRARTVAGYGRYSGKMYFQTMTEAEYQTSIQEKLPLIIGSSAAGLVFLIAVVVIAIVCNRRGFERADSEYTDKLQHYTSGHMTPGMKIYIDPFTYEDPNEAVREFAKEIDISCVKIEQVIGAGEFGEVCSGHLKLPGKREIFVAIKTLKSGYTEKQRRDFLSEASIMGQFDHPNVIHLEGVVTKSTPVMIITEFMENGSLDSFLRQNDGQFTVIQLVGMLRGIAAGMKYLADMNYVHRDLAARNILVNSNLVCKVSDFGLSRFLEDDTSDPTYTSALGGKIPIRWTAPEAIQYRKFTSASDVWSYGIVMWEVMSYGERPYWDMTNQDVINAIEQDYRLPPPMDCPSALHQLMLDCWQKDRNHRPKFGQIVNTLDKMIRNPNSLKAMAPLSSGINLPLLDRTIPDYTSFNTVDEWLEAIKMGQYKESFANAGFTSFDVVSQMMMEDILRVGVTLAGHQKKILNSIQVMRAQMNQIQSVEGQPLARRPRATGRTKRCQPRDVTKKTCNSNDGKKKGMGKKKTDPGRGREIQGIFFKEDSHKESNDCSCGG
Assay: phosphorylation enrichment, bacterial display (enrichment ratio); higher = better substrate or ligand; peptides without Tyr show the background
sequences and their reported phosphorylation enrichment

>  <record-sequence>
EIIPFYGMSSF [FNDC3B_Y175_T179S_YF]

>  <phosphorylation enrichment>
0.916

$$$$
>  <record-sequence>
CERFSYYGMKA [SLC15A2_Y60]

>  <phosphorylation enrichment>
0.611

$$$$
>  <record-sequence>
NVLPEYKLQAP [KCNH2_Y388_D383N]

>  <phosphorylation enrichment>
0.632

$$$$
>  <record-sequence>
IWDLKYTIENP [SND1_Y178_R174W]

>  <phosphorylation enrichment>
0.498

$$$$
>  <record-sequence>
LTKQEYDEAGP [ACTA1_Y364_I359L]

>  <phosphorylation enrichment>
1.23

$$$$
>  <record-sequence>
EYFDGYWGYSV [ITGA2B_Y265]

>  <phosphorylation enrichment>
9.3

$$$$
>  <record-sequence>
QEALEYFMKQM [PIK3CA_Y1038]

>  <phosphorylation enrichment>
0.624

$$$$
>  <record-sequence>
TDEYEYDELIV [TGM1_Y136]

>  <phosphorylation enrichment>
0.566

$$$$

* * *

Tested on: c-Abl (mouse)
Assay: phosphorylation enrichment, bacterial display (enrichment ratio); higher = better substrate or ligand; peptides without Tyr show the background
Short version: phosphorylation enrichment at least 0.9 is Satisfied, less is Not satisfied.

>  <record-sequence>
EHEALYLEADL [CENPF_Y1920]

>  <group-label>
Satisfied

$$$$
>  <record-sequence>
QCTSAHPLQPE [NANS_Y188_Y188H]

>  <group-label>
Satisfied

$$$$
>  <record-sequence>
NPQKSYFILLF [WAS_Y83_R86L_YF]

>  <group-label>
Not satisfied

$$$$
>  <record-sequence>
EQYELHCEMGS [CBL_Y371_Y371H]

>  <group-label>
Not satisfied

$$$$
>  <record-sequence>
QVKEQYQDVPM [PKP2_Y659_K654Q]

>  <group-label>
Satisfied

$$$$
>  <record-sequence>
NDTAGYFIIGG [SEL1L3_Y399]

>  <group-label>
Not satisfied

$$$$
>  <record-sequence>
FFRKVYHLASV [RBL1_Y796_YF]

>  <group-label>
Not satisfied

$$$$

* * *

Target: MERTK (UniProt Q12866)
Sequence (Q12866 whole entry, looked up): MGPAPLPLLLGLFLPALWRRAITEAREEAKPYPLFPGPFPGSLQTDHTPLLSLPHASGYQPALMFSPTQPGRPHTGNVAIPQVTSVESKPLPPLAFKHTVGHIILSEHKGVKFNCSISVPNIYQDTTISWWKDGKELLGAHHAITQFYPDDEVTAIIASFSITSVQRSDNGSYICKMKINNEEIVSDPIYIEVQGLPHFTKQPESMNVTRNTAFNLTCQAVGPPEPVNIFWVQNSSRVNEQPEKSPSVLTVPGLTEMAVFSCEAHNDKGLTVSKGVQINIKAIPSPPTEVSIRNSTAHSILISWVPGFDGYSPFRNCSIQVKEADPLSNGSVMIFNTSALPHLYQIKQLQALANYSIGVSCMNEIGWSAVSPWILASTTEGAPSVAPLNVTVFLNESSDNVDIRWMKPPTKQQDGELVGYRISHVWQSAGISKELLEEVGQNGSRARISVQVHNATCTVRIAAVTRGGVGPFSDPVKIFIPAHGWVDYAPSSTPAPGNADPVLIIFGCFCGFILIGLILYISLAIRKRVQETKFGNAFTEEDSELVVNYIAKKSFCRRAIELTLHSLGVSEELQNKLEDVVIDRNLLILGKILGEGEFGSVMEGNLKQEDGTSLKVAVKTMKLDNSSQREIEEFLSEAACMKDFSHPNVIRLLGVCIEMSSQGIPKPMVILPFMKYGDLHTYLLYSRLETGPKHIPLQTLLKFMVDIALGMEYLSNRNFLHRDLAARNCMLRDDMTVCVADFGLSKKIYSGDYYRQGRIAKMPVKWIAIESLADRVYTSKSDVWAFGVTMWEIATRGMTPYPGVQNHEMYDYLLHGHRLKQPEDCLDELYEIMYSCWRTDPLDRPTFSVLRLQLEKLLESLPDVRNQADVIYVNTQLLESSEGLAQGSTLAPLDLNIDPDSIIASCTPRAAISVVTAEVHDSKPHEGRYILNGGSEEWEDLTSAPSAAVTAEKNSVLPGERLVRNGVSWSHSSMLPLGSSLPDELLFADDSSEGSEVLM
Test: phosphorylation enrichment, bacterial display (enrichment ratio); higher = better substrate or ligand; peptides without Tyr show the background
sequences and their reported phosphorylation enrichment
observation-type: phosphorylation enrichment

>  <record-sequence>
SSENPYATIKD [MEGF10_Y1030]

>  <system-name>
MERTK (UniProt Q12866)

>  <observation-type>
phosphorylation enrichment

>  <reported-measurement>
0.506

$$$$
>  <record-sequence>
ATPKGYELDAS [OTC_Y223_P225L]

>  <system-name>
MERTK (UniProt Q12866)

>  <observation-type>
phosphorylation enrichment

>  <reported-measurement>
0.491

$$$$
>  <record-sequence>
TDLAFYLVRKG [ASL_Y376_YF]

>  <system-name>
MERTK (UniProt Q12866)

>  <observation-type>
phosphorylation enrichment

>  <reported-measurement>
0.506

$$$$

* * *

Molecular target: Fyn (UniProt P06241)
Sequence (P06241 whole entry, looked up): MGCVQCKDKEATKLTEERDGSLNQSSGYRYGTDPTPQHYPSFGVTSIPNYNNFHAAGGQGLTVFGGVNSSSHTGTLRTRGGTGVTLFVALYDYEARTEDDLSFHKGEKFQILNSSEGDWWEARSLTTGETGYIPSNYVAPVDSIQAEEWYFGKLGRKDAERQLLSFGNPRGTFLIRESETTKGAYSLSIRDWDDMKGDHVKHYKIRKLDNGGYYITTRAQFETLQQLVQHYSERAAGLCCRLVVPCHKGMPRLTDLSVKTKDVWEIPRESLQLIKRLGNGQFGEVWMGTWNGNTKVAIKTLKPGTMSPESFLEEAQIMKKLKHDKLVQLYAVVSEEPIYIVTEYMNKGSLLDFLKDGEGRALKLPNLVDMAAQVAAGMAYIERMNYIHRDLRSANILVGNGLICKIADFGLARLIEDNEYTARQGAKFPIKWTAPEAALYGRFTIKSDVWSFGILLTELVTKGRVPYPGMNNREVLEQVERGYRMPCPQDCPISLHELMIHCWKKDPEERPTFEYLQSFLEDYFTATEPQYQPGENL
Experiment: phosphorylation enrichment, bacterial display (enrichment ratio); higher = better substrate or ligand; peptides without Tyr show the background
Each record's class is read off its phosphorylation enrichment using these ranges: bottom bin: < 0.5; middle bin: ≥ 0.5 and < 0.7; top bin: ≥ 0.7

>  <record-sequence>
ESKAGYRVPRS [CLDN7_Y195]

>  <group-label>
bottom bin

$$$$
>  <record-sequence>
SIKDKYVMALY [KCNH2_Y611_T613M]

>  <group-label>
bottom bin

$$$$
>  <record-sequence>
QSSALYEDHFL [ASS1_Y83_R86H_YF]

>  <group-label>
top bin

$$$$
>  <record-sequence>
ERFSYYGMKAV [SLC15A2_Y61]

>  <group-label>
top bin

$$$$
>  <record-sequence>
LIDTVYSSSSA [OR4C12_Y71]

>  <group-label>
top bin

$$$$
>  <record-sequence>
SAAAIYMVRHP [PMP22_Y117_T118M]

>  <group-label>
top bin

$$$$
>  <record-sequence>
NQILPYIEELV [PPP2R1B_Y341_K343E]

>  <group-label>
middle bin

$$$$
>  <record-sequence>
EFNLMYDGAKE [IRF6_Y97_T100A]

>  <group-label>
middle bin

$$$$
>  <record-sequence>
GRLFAYPDTHC [CAT_Y358_R363C]

>  <group-label>
bottom bin

$$$$
>  <record-sequence>
GVSYIYTIDGS [DCX_Y105_R102S]

>  <group-label>
top bin

$$$$
>  <record-sequence>
YDGGCYEQLFV [MC4R_Y41_S36Y]

>  <group-label>
top bin

$$$$
>  <record-sequence>
DLNATYRTIQG [U2SURP_Y634]

>  <group-label>
middle bin

$$$$
>  <record-sequence>
SLDLSYFTTSS [EMD_Y181_P183T_YF]

>  <group-label>
bottom bin

$$$$
>  <record-sequence>
IWDLKYTIENP [SND1_Y178_R174W]

>  <group-label>
bottom bin

$$$$
>  <record-sequence>
QKPLGYFRVNL [GALE_Y104_D103G_YF]

>  <group-label>
middle bin

$$$$
>  <record-sequence>
LGRTRYQDVTG [MIPEP_Y510_H512D]

>  <group-label>
middle bin

$$$$
>  <record-sequence>
DSIRDYEDGTE [CLNS1A_Y214_M218T]

>  <group-label>
middle bin

$$$$
>  <record-sequence>
SISFDYCRVPM [BST2_Y8_T4I_YF]

>  <group-label>
bottom bin

$$$$
>  <record-sequence>
QMIETYFDFRV [NSMF_Y506_L511V]

>  <group-label>
top bin

$$$$
>  <record-sequence>
SDVCMYRKNIF [SYNE2_Y570_YF]

>  <group-label>
bottom bin

$$$$
>  <record-sequence>
CDGKEYDPVEA [MAPRE2_Y167_Y162C]

>  <group-label>
middle bin

$$$$
>  <record-sequence>
QTSTDYDIRFY [CSNK2A1_Y131_L128S]

>  <group-label>
top bin

$$$$
>  <record-sequence>
ENPLDYGSAWA [AR_Y395]

>  <group-label>
middle bin

$$$$
>  <record-sequence>
TVQVAYFTVMM [SPATA17_Y83_M86V_YF]

>  <group-label>
middle bin

$$$$
>  <record-sequence>
LGNFNYEQRGA [API5_Y497]

>  <group-label>
bottom bin

$$$$
>  <record-sequence>
ESFRLYPPVPQ [CYP4B1_Y377]

>  <group-label>
bottom bin

$$$$
>  <record-sequence>
PGLKGYPGLSG [COL4A2_Y306_R304K]

>  <group-label>
bottom bin

$$$$
>  <record-sequence>
DSYWSYCNAVA [SLC20A2_Y436_S434W]

>  <group-label>
top bin

$$$$
>  <record-sequence>
MYQVQYNSSVD [LRFN1_Y458]

>  <group-label>
middle bin

$$$$
>  <record-sequence>
VFLGAYDHFLP [SLC22A5_Y486_R488H_YF]

>  <group-label>
top bin

$$$$
>  <record-sequence>
LLQAEYWHDPI [PPT1_Y185_V181L]

>  <group-label>
top bin

$$$$
>  <record-sequence>
WGTAEYDSVVA [MAP1A_Y1883]

>  <group-label>
middle bin

$$$$
>  <record-sequence>
WEPFGFAVTRC [PTPRT_Y412_Y412F]

>  <group-label>
bottom bin

$$$$
>  <record-sequence>
NVVQEYERVII [NPHS2_Y131_K126N]

>  <group-label>
bottom bin

$$$$
>  <record-sequence>
NFNPNYCFAGK [ALK_Y1096_D1091N_YF]

>  <group-label>
middle bin

$$$$
>  <record-sequence>
NNDLCYWVLEL [IARS1_Y434_P437L]

>  <group-label>
top bin

$$$$
>  <record-sequence>
RLSVDYSKKSK [TUBA3E_Y161]

>  <group-label>
bottom bin

$$$$
>  <record-sequence>
FGMSTYITRED [FNDC3B_Y180_YF]

>  <group-label>
middle bin

$$$$
>  <record-sequence>
DKATEYSQYMR [MAX_Y70_I71S]

>  <group-label>
middle bin

$$$$
>  <record-sequence>
QDEHGYISWCF [HSPB1_Y133_R136W]

>  <group-label>
middle bin

$$$$
>  <record-sequence>
STEAIYWRYSK [SH3PXD2B_Y42_R43W]

>  <group-label>
top bin

$$$$
